Measured On: human 5-HT6 receptor (Homo sapiens)
Construct: host or cells: CHO-K1 cells, stably transfected; membranes prepared in house
Sequence (P50406 whole entry): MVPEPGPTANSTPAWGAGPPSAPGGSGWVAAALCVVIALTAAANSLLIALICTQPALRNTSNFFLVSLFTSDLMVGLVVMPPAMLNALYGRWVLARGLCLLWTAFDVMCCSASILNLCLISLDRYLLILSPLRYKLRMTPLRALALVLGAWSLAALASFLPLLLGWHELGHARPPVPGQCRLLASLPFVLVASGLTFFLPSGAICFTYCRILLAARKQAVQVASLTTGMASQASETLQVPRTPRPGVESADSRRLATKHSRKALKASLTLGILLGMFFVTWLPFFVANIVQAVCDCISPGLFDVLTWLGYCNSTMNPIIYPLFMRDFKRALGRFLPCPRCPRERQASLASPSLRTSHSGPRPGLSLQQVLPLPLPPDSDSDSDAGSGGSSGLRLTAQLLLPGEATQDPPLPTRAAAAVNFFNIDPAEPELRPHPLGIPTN
Assay Notes: Human 5-HT6 Receptor Binding Assay ([3H]LSD, scintillation beads)
Condition Details: actual data; membranes of CHO-K1 cells with recombinant human 5-HT6 receptor, 4 nM [3H]LSD; read-out: Human 5-HT6 Ki
Ki overview
Measured Quantity: Ki (nM)

1. CC(C)N1CCC2c3ccc(S(=O)(=O)c4ccccc4)cc3OCC21 (single isomer, unassigned) [Example 57]
504
2. O=S(=O)(c1ccccc1)c1ccc2c(c1)OCC1C2CCN1CCO (single isomer, unassigned) [Example 97]
221
3. O=S(=O)(c1ccccc1)c1ccc2c(c1)OCC1NCCC21 (racemic) [Example 104]
2.5
